Molecular target: UniProt:P29274
Sequence (P29274 whole entry): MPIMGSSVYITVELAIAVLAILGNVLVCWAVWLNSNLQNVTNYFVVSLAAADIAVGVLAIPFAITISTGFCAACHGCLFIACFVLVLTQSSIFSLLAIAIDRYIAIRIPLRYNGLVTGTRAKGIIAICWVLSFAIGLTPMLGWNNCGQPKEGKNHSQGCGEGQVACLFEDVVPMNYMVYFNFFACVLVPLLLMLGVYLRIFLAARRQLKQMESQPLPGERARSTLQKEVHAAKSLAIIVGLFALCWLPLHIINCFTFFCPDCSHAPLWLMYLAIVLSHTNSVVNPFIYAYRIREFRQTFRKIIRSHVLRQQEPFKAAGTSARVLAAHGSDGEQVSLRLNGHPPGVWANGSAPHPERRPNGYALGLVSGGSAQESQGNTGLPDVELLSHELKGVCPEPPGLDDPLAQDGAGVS
Assay: Inhibition of cAMP production in HEK cells
Type: cell-based
Conditions: IC50 (nM) (3 nM NECA as agonist, 0.1% BSA), HEK-293 cells with A2A receptor, 3 nM NECA as agonist, 0.1% BSA
measure.name: IC50 (nM)
Give the value in nM but do not write nM after it.

Query: # input molecule: Nc1nc2c(sc(=O)n2CCN2CCN(c3ccc(OCC4COCCN4)cc3F)CC2)c2nc(-c3ccco3)nn12 (stereo not shown) ; wanted: its IC50
Response: 0.5

Query: # input molecule: "Nc1nc2c(sc(=O)n2CCN2CCN(c3ccc(S(=O)(=O)N4CCNCC4)cc3F)CC2)c2nc(-c3ccco3)nn12" ; wanted: its IC50
Response: 0.2

Query: # input molecule: C[S@@+]([O-])CCOc1ccc(N2CCN(CCn3c(=O)sc4c3nc(N)n3nc(-c5ccco5)nc43)CC2)c(F)c1 (single isomer, unassigned) ; wanted: its IC50
Response: 0.5

Query: # input molecule: "NCCOc1ccc(N2CCN(CCn3c(=O)sc4c3nc(N)n3nc(-c5ccco5)nc43)CC2)cc1" ; wanted: its IC50
Response: 0.6

Sourced from patent US10995101B2
